System: HeLa
Assay: Primary qHTS to identify gynecologic anti-cancer compounds using libraries of approved drugs and bioactive compounds (AID 1345084); also: % is scaled to controls: 0 for no effect and ±100 for the full control effect; nearly all actives have a fitted effect of over 55% in size
Conditions: Gynecologic cancer cell panel viability, ATPlite luminescence, 48 h; series mostly up to 57.5 µM
Inconclusive results are not listed. Calls of active or inactive are those of the source. Calls follow the shape of the dose curve; as a rule, active = well fitted cell-killing curve with a large enough effect; inconclusive = small, poorly fitted or top-dose-only effect, or effect the other way; inactive = flat fitted curve, though single readings scatter.
assayEndpoint: activity change, negative = cytotoxicity

molecule	assayEndpoint	value
COC(=O)C1=CO[C@@H](O[C@@H]2O[C@H](CO)[C@@H](O)[C@H](O)[C@H]2O)[C@H]2[C@@H]1[C@H](O)[C@H](O)[C@]2(C)O	activity change, negative = cytotoxicity	inactive
COc1cccc(Cn2ncc3c4sc(S(C)=O)cc4n(C)c3c2=O)c1 (configuration not stated)	activity change, negative = cytotoxicity	inactive
CC(=O)OCC1OC(O[C@H]2CC[C@]34C[C@]35CC(O)[C@]3(C)[C@@H]([C@H](C)CC/C=C(\C)C(=O)O)C(O)C[C@@]3(C)C5CC[C@H]4C2(C)C)C(O)C(O)C1OC1OCC(O)C(O)C1O (some centres not stated)	activity change, negative = cytotoxicity	6.1% [at 11.6 µM] (inactive)
C[C@@H]1[C@H]2[C@H](O[C@@H]3O[C@H](CO)[C@@H](O)[C@H](O)[C@H]3O)OC=C(C(=O)O)[C@H]2C[C@@H]1OC(=O)/C=C/c1ccc(O)cc1	activity change, negative = cytotoxicity	inactive
COc1ccc2c(c1)C=C1Cn3c-2c(C2CCCCC2)c2ccc(cc23)C(=O)NS(=O)(=O)N(C)CCOCCN(C)C1=O	activity change, negative = cytotoxicity	inactive
CCCC(C(=O)O)c1c(C)nc2ccc(Cl)cc2c1-c1ccccc1 (configuration not stated)	activity change, negative = cytotoxicity	inactive
CC1(C)CC[C@]2(C(=O)O)CC[C@]3(C)C(=CCC4[C@@]5(C)C[C@H](O)[C@H](O[C@@H]6O[C@H](CO)[C@@H](O)[C@H](O)[C@H]6O)[C@@](C)(CO)C5[C@H](O)C[C@]43C)[C@@H]2C1 (some centres not stated)	activity change, negative = cytotoxicity	inactive
Cc1[nH]c2ccccc2c1CC(=O)N[C@@H](Cc1ccccc1)C(=O)N(C)c1ccccc1	activity change, negative = cytotoxicity	inactive
O=C(O)CCc1cc2ccoc2cc1O[C@@H]1O[C@H](CO)[C@@H](O)[C@H](O)[C@H]1O	activity change, negative = cytotoxicity	inactive
CC(=O)O[C@@H]1[C@H](O[C@@H]2O[C@H](CO)[C@@H](O)[C@H](O)[C@H]2O)[C@@H](O[C@@H]2O[C@@H](C)[C@H](O)[C@@H](O[C@@H]3O[C@H](CO)[C@@H](O)[C@H](O)[C@H]3O)[C@H]2O)[C@H](OC(=O)[C@]23CCC(C)(C)C[C@H]2C2=CCC4[C@@]5(C)C[C@H](O)[C@H](O[C@@H]6O[C@H](C(=O)O)[C@@H](O)[C@H](O)[C@H]6O)[C@@](C)(C(=O)O)C5CC[C@@]4(C)[C@]2(C)CC3)O[C@@H]1C (some centres not stated)	activity change, negative = cytotoxicity	0.873% [at 6.55 µM] (inactive)
CC1=CC(=O)CC(C)(C)C1CO[C@@H]1O[C@H](CO)[C@@H](O)[C@H](O)[C@H]1O (some centres not stated)	activity change, negative = cytotoxicity	inactive
CC(=C\C(C)O)/C=C(\C)C(=O)CC1CC(CC(N)=O)CC(=O)O1 (configuration not stated)	activity change, negative = cytotoxicity	inactive
